experiment: NOD1 signaling inhibitors, primary screen, cell-based, luminescence, uHTS (AID 1578); conditions: NOD1-driven NF-kB luciferase reporter cells, at 4 µM, stronger effect = higher value;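 note: HEK-293T reporter cells stimulated with the NOD1 agonist gamma-tri-DAP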
The campaign covered roughly 290,000 compounds. About 3,000 (1%) were called active. The full list was thinned out, with actives kept by preference.
Where inhibition equals or exceeds -10%, the correct label is MET; where it does not, the label is NOT MET.

Study these solved cases before continuing.
{"structure string": "CCOc1ccc(/C=C/c2nc(C#N)c(NCCCOC)o2)cc1", "class label": "NOT MET"}
{"structure string": "COc1ccc(CCNC(=O)c2ccc3ccccc3n2)cc1OC", "class label": "NOT MET"}
{"structure string": "C=CCOc1ccccc1CNc1cccc(F)c1", "class label": "MET"}
{"structure string": "FC(F)(F)c1cccc(Cn2cnc(NC(=S)NCCc3ccccc3)n2)c1", "class label": "NOT MET"}
{"structure string": "CC(C)(C)c1ccc(C(=O)c2c[nH]c(C(=O)NCCCN3CCOCC3)c2)cc1", "class label": "NOT MET"}
{"structure string": "Cc1cccc2sc(NC(=O)CSc3cn[nH]n3)nc12", "class label": "MET"}
{"structure string": "CCNc1oc(/C=C/c2ccc(OCC)cc2)nc1C#N", "class label": "MET"}

### Prompt # bool: inhibition of "N#CN=C(c1ccccc1)c1ccccc1" >= -10%
### Response NOT MET
